Test system: HCT-116 colon
Result category, one only: active, inactive

>>> print(df.to_string())
                                   molecule  classification
0  COc1ccc([As]=[As]c2ccc(OC)c(NCS(=O)(=O)O)c2)cc1NCS(=O)(=O)O (stereo not given)        inactive
1  Nc1ccn(C2OC(CO)C(O)C2(F)F)c(=O)n1 (stereo not given)          active
2  c1ccc2nc3c(cc2c1)Sc1cc2ccccc2[n+]2c1N3CC2        inactive

Could you kindly confirm the outcome this assay logged for O=C1c2ccccc2C(=O)c2c(Nc3ccc(CCO)cc3)ccc(O)c21 ?
inactive

Just curious, what result did O=C(c1ccccc1)c1c(C(F)(F)F)n([O-])c2ccc(F)cc2[n+]1=O get here?
active

----------
Please go through the items and note down their GI50.
Tested on: HCT-15 colon

COMPOUND	TARGET	QUANTITY_NAME	ASSAY_RESULT
COC1C(O)CC(OC2CC(OC3CC(O[C@@H]4C(=O)c5c(cc6cc(OC7CC(OC8CC(O)C(O)C(C)O8)C(O)C(C)O7)c(C)c(O)c6c5O)CC4[C@H](OC)C(=O)C(C)=O)OC(C)C3O)OC(C)C2O)OC1C (stereo partly specified)	HCT-15 colon	GI50	0.101 µM
O=C(O)CN(CCN(CC(=O)O)CC(=O)O)CC(=O)O	HCT-15 colon	GI50	> 100 µM
Cc1ccc(C(=Nc2ccccc2)N=P(c2ccccc2)(c2ccccc2)c2ccccc2)cc1	HCT-15 colon	GI50	1.22 µM
COc1cc(/C=C2\CN(S(=O)(=O)c3ccc(C)cc3)C/C(=C\c3cc(CN4CCOCC4)c(O)c(OC)c3)C2=O)cc(CN2CCOCC2)c1O	HCT-15 colon	GI50	1.9 µM
CCOC(=O)C1=C(C)N=C2SC=C(c3ccccc3)N2[C@H]1c1cn[nH]c1-c1ccc(Cl)cc1	HCT-15 colon	GI50	3.19 µM

// for each compound below, give its GI50
1. CS(=O)(=O)c1ccc(Oc2cc(F)cc(C#N)c2)c2c1[C@H](O)[C@H](F)[C@H]2F
2. c1ccc2nc3c(cc2c1)Sc1cc2ccccc2[n+]2c1N3CC2
3. CC12OC(CC(O)C1O)n1c3ccccc3c3c4c(c5c6ccccc6n2c5c31)C(=O)N(CCN1CCCC1)C4=O (stereo unspecified)
4. COc1ccc([As]=[As]c2ccc(OC)c(NCS(=O)(=O)O)c2)cc1NCS(=O)(=O)O (stereo unspecified)

1: > 100 µM; 2: > 100 µM; 3: 1 µM; 4: 1.47 µM

Hi, could you look up GI50 for each item in my list?
1. COc1cc(C(=O)N2CCN(c3ccccn3)CC2)c(N)cc1OCc1ccccc1
2. OCc1cn(Cc2ccc(Cl)cc2)c2ccccc12

1: > 100 µM; 2: 3.44 µM

----------
Test system: A498 renal
TEST_DETAILS: NCI tumour cell line growth inhibition, 48 h
Record form. Attribute: TGI. Fill in for each entry.
Give bare numbers, in µM.

COMPOUND	ASSAY_RESULT
COC1C(O)CC(OC2CC(OC3CC(O[C@@H]4C(=O)c5c(cc6cc(OC7CC(OC8CC(O)C(O)C(C)O8)C(O)C(C)O7)c(C)c(O)c6c5O)CC4[C@H](OC)C(=O)C(C)=O)OC(C)C3O)OC(C)C2O)OC1C (some centres undefined)	0.0884

Now for a further compound.
Look at this compound and give its reported TGI. O=C(CI)OCC(COC(=O)CI)OC(=O)CI
26.7

----------
Test system: IGROV1 ovarian
TEST_DETAILS: NCI tumour cell line growth inhibition, 48 h
QUANTITY_NAME: TGI

MOLECULE	TGI
CN(C)c1ccc(C(C#N)NNC(=O)Cc2ccccc2)cc1 (centres undefined)	> 100 µM
O=c1[nH]c2nc3ccccc3n2c(O)c1-c1ccccc1	> 100 µM
CC[C@]1(O)CC2CN(CCCc3c([nH]c4ccccc34)[C@@](C(=O)OC)(c3cc4c(cc3OC)N(C)C3C45CCN4CC=C[C@](CC)(C45)C(OC(C)=O)[C@@]3(O)C(=O)OC)C2)C1 (some centres undefined)	> 10 µM
Cc1ccc(/C=C2\COc3ccc(O)c(O)c3C2=O)cc1	2.62 µM
Nc1nc[n+](Cc2ccccc2)c2ncn(Cc3ccccc3)c12	> 100 µM
O=C1c2ccccc2-c2c1c1ccc([N+](=O)[O-])cc1c(=O)n2CCCN1CCOCC1	> 100 µM

Give TGI for all molecules that follow.
1. COc1ccc2c(c1)OCC1Cc3cc4c(cc3OC21)OCO4 (centres undefined)
2. NC(=Nc1ccc(S(=O)(=O)Nc2cnc3ccccc3n2)cc1)/N=C(/N)Nc1ccc(Br)cc1
3. N#CCC(=O)N/N=C(\CCN1CCCC1)CC(c1ccccc1)c1c(O)c2ccccc2oc1=O (centres undefined)

> 100 µM
> 100 µM
> 100 µM

----------
Please go through the items and note down their TGI.
Tested on: HOP-92 NSCLC
TEST_DETAILS: NCI tumour cell line growth inhibition, 48 h
One number for each entry, in µM.

>>> df
                                   compound  assay_result
0  OC1c2c(ccc3c2CCC3)CC12Cc1ccccc1C2 (stereo unspecified)          25.8
1  Cc1[nH]c(-c2ccccc2)c(O)c1C(=O)OC12CC3CC(CC(C3)C1)C2          34.8

# context switch: different compound, same TGI
What value of TGI has been recorded for this entry: COC(=O)C1(Cc2ccccc2)Cc2cc3c(cc2C1)CCC3
41.2

----------
System: 786-0 renal
TEST_DETAILS: NCI tumour cell line growth inhibition, 48 h
Assignment: determine reported TGI for the given compounds.

COMPOUND	TGI
C[n+]1[se]c2ccccc2c1Cl	> 59.2 µM
COc1ccc(-c2cc(=O)c3cc(C)cnc3[nH]2)cc1	> 100 µM
CC(=O)N/N=C1/NN(C(C)=O)C2(S1)C(=O)Nc1ccc(C)cc12 (centres undefined)	> 100 µM
CC(C)(C)OC/C=C(\Br)CO	> 100 µM
O=C1C(c2ccc([N+](=O)[O-])cc2)=[N+]([O-])c2ccc([N+](=O)[O-])cc21	> 100 µM

State the recorded TGI for every item in the following list.
1. O=C(CI)OCC(COC(=O)CI)OC(=O)CI
2. CCN(Cc1cccnc1)c1ccc(CO)c(Cl)c1
3. CCSC(=O)N1c2ccc(OC)cc2C=CC1C#N (centres undefined)
4. Cc1ccc(N=Nc2c(C)nn(-c3ccccc3)c2-c2ccccc2)c(Br)c1
5. OCCN(CCO)CCn1cnc2c(NCc3ccccc3)ncnc21
6. COc1ccc(-c2cc(=O)oc3ccc(Cl)cc23)cc1F
7. S=c1ncc2n[nH]nc2[nH]1
8. CCN(Cc1ccccc1F)c1ccc(CO)c(Cl)c1

["6.28 µM", "> 100 µM", "121 µM", "> 100 µM", "> 100 µM", "> 100 µM", "> 100 µM", "41 µM"]

----------
Provide the reported TGI of each item.
Test system: A549 NSCLC
TEST_DETAILS: NCI tumour cell line growth inhibition, 48 h

SAMPLE_SMILES	TGI
CCCCCCSC[C@H](OC(C)=O)[C@@H](OC(C)=O)[C@@H](OC(C)=O)[C@@H](COC(C)=O)OC(C)=O	> 100 µM
Cc1cc(C(=O)CBr)c(CN2C(=O)c3ccccc3C2=O)c(=O)n1C	44.7 µM
O=C(NCc1ccccc1)c1cc2ccccc2oc1=Nc1ccccc1F	88.7 µM

I am curious: what TGI value has been reported for COc1cc2cc(c1Cl)N(C)C(=O)C[C@H](OC(=O)[C@H](C)N(C)C(=O)CCS)C[C@]1(C)O[C@H]1[C@H](C)[C@@H]1C[C@@](O)(NC(=O)O1)[C@H](OC)/C=C/C=C(\C)C2 ?
> 50 µM

----------
Tested on: SK-MEL-2 melanoma
TEST_DETAILS: NCI tumour cell line growth inhibition, 48 h
So I've got a bunch of compounds here, and I need their TGI values.

As a guide, the following entries are already answered.
>>> df
                                   compound  assay_result
0  CC(C)=CC1CC(=O)C1(C)Sc1ccccc1 (stereo unspecified)      > 100 µM
1             C(=Nc1ccccc1C1SCCCS1)c1ccccc1      > 100 µM
2  COc1cc2c3c(n(CCCn4ccnc4)c(=O)c2cc1OC)-c1cc2c(cc1C3=O)OCO2      > 100 µM
3  c1ccc2nc3c(cc2c1)Sc1cc2ccccc2[n+]2c1N3CC2       43.9 µM
4            O=C(O)/C=C/C=C/c1ccc2c(c1)OCO2      > 100 µM

Continue with the next compound.
What TGI value was documented for this compound, COc1ccc(-c2cc(=O)c3cc(C)cnc3[nH]2)cc1 ?
> 100 µM
